# System: KM12 colon
# methodSummary: NCI-60 one-dose screen, 48 h (100 = growth as untreated, 0 = no growth, -100 = all killed)
# condition: 10 µM
About 83,000 compounds went through this panel and 20% of them were active in at least one assay; those are over-represented in the sample as a whole.
reportedProperty: growth (%)

>>> print(df.to_string())
                                   compound  assaysystem  reportedproperty   val
0  CNC(=O)c1cc(Oc2ccc(CC(=O)Nc3cc(C(C)(C)C)nn3C)cc2)ccn1   KM12 colon            growth  58.5
1  CC1(C)OB(c2ccc(Cn3cc(F)c(=O)[nH]c3=O)cc2)OC1(C)C   KM12 colon            growth    99
2  CCCCCCCCCCCCCCCc1ccc(Cl)c(O)c1Cl (tested in a mixture with another compound)   KM12 colon            growth  96.7
3  CC(C)(C)c1cc(NC(=O)Cc2ccc(-c3cnc4cc(-c5cnn(CCN6CCOCC6)c5)ccc4n3)cc2)no1   KM12 colon            growth  8.46
4  CCc1ccccc1-n1c(N)c(C#N)c(-c2ccc(OC)c(OC)c2)c(C#N)c1=O   KM12 colon            growth  99.3

----------
compounds and their reported growth
# System: UO-31 renal
# methodSummary: NCI-60 one-dose screen, 48 h (100 = growth as untreated, 0 = no growth, -100 = all killed)
# condition: 10 µM unless noted
The panel holds about 83,000 compounds, 20% with a hit somewhere; the sample as a whole holds those more often.
reportedProperty: growth (%)

>>> df
                                   compound  assaysystem   val
0  Oc1ccccc1C=NCC1CCC(CN=Cc2ccccc2O)CC1 (stereo not drawn)  UO-31 renal  72.4
1        Cc1c(Cl)cccc1NCN1C(=O)c2ccccc2C1=O  UO-31 renal  82.8
2  Cc1ccc(S(=O)(=O)NCN2C(=O)c3ccccc3C2=O)cc1  UO-31 renal  92.3

----------
# Test system: NCI-H460 lung
# methodSummary: NCI-60 one-dose screen, 48 h (100 = growth as untreated, 0 = no growth, -100 = all killed)
# condition: 10 µM
This is part of a sample that, as a whole, favours compounds with a hit. Of some 83,000 tested, about 20% had one in any assay.
reportedProperty: growth (%)

>>> df
                                   compound  unitstext   val
0  CC1(C)OB(c2ccc(Cn3cc(F)c(=O)[nH]c3=O)cc2)OC1(C)C          %   106
1  CC#C[C@]1(O)CC[C@H]2[C@@H]3CCC4=CC(=O)CCC4=C3[C@@H](c3ccc4c(c3)OCO4)C[C@@]21C          %  90.5
2                            O=C(O)c1sccc1O          %  91.2
3  Cc1[nH]c(-c2nc3ccccc3[nH]2)c(C)c1C(=O)NC(C)C1CCCCC1 (centres undefined)          %  98.1

----------
# Tested on: SF-268 CNS
# methodSummary: NCI-60 one-dose screen, 48 h
# condition: 10 µM unless noted
Compounds without any hit were thinned out: in the full panel of roughly 83,000, 20% have a hit. Calls of active or inactive are those of the source. The calls were made as follows: active = growth percent below 10; inactive = the rest.
Labels: active, inactive

                                    molecule  assaysystem  category
 0                  Fc1ccccc1Nc1n[nH]c(=S)s1   SF-268 CNS  inactive
 1               COc1ccc(NC(=S)Nc2ccccn2)cc1   SF-268 CNS  inactive
 2  O=C(Cc1cccc2ccccc12)N/N=C/c1ccc2c(c1)CCC2   SF-268 CNS  inactive
 3  Clc1nc(Oc2ccccc2)nc(-c2cn(-c3ccccc3)c3ccccc23)n1   SF-268 CNS  inactive
 4  CC(/C=N/N1C(=O)c2ccccc2C1=O)c1ccccc1 (stereo unspecified)   SF-268 CNS  inactive
 5  CCN1CCN(CCNc2nccc(-c3c(-c4cccc(O)c4)nc4sccn34)n2)S1(=O)=O   SF-268 CNS  inactive
 6  Cc1ccc(-c2noc(CC(=O)c3ccc([N+](=O)[O-])cc3)n2)cc1   SF-268 CNS  inactive
 7      O=C(O)c1cc(C(=O)O)cc([N+](=O)[O-])c1   SF-268 CNS  inactive
 8               CCOC(=O)c1sc(N)nc1-c1ccccc1   SF-268 CNS  inactive
 9     O=C(CCc1ccc(O)cc1)N/N=C/c1cc(Br)ccc1O   SF-268 CNS  inactive
10  CN(C)c1ccc(C(=C2C=CC(=[N+](C)C)C=C2)c2ccccc2Cl)cc1   SF-268 CNS    active

----------
# System: SK-MEL-28 melanoma
# methodSummary: NCI-60 one-dose screen, 48 h (100 = growth as untreated, 0 = no growth, -100 = all killed)
# condition: 10 µM unless noted
Compounds without any hit were thinned out: in the full panel of roughly 83,000, 20% have a hit.
reportedProperty: growth (%)

>>> print(df.to_string())
                                    compound  unitstext    val
 0                            O=Nc1ccc(O)cc1          %    113
 1  NC(=O)c1ccccc1OCC(O)CO (stereo unspecified)          %    105
 2                 O=C(O)CSCc1nc2ccccc2[nH]1          %    105
 3           C[N+](C)(C)CN1C(=O)c2ccccc2C1=O          %   98.6
 4    Cc1cc(O)c2c(c1)C(=O)c1cc(O)cc(O)c1C2=O          %   87.7
 5  CC1(c2ccc3ccccc3c2)CCC(=O)O1 (stereo unspecified)          %    102
 6  Cn1c(=O)c2[nH]c(CCCCCCCCc3nc4ccccc4[nH]3)nc2n(C)c1=O          %   88.9
 7                                OCc1ccccn1          %    112
 8    N#C/C(=C1C=C/C(=N/O)C(Br)=C/1)c1ccccc1          %   61.3
 9  CC1=NN(c2ccccc2)C(=O)C1C(=O)c1ccccc1 (stereo unspecified)          %    101
10  Cc1ccc(S(=O)(=O)NCN2C(=O)c3ccccc3C2=O)cc1          %    111
11                     CC12CCC(CC1)C(C)(C)O2          %    114
12  CC(O)Cn1cnc2c1c(=O)n(C)c(=O)n2C (stereo unspecified)          %    103
13  CCC(=O)C(CC)c1cccc(OC)c1 (stereo unspecified)          %    106
14  Nc1ccccc1SC1CC(=O)N(c2cccc3ccccc23)C1=O (stereo unspecified)          %   96.3
15  CN1CCN(Cc2occc(=O)c2O)CCN(C)CCN(Cc2occc(=O)c2O)CC1          %   64.4
16                  CCCCCCCCCCCCOc1ccccc1C=O          %    106
17         Nc1ccc2[nH]c(-c3ccccc3)cc(=O)c2c1          %   86.5
18             COc1ccc2ccccc2c1/C=N/N1CCCCC1          %   96.5
19                  Fc1ccccc1Nc1n[nH]c(=S)s1          %    102
20  O=[N+]([O-])c1ccc2nc3c4ccccc4c4ccccc4c3nc2c1          %    113
21  NCCSC(C[N+](=O)[O-])c1ccccc1Cl (stereo unspecified)          %  -20.5
22  O=C1c2c(O)cc(O)cc2OC(c2ccc(O)c(O)c2)C1O (stereo unspecified)          %    108
23  CC1=C(/C=C/C(C)=C/C=C/C(C)=C/C(=O)Nc2ccc(O)cc2)C(C)(C)CCC1          %   61.7
24        Cc1c(Cl)cccc1NCN1C(=O)c2ccccc2C1=O          %    112
25  COc1cc(C(=O)N/N=C/c2ccc(N(C)C)cc2)cc(OC)c1OC          %   53.8
26                           CNC(=O)c1cccnc1          %    116
27        O=C=NC(c1ccccc1)(c1ccccc1)c1ccccc1          %    114
28  O=C(O)C1(C(=O)O)CCC1.[NH2-].[NH2-].[Pt+2]          %    112
29               CC(=O)C(/C=N/C(N)=O)=C(/C)O          %    115
30       Cc1ccc2nc3c(nc2c1)-c1cccc2cccc-3c12          %    102
31                               C1CCCCNCCC1          %    109
32           O=[N+]([O-])c1ccc(Oc2ccccc2)cc1          %    108
33  CCN(CC)CCC(CNc1c2ccc([N+](=O)[O-])cc2nc2cc(OC)c(OC)cc12)c1ccccc1 (stereo unspecified)          %  -84.8
34                        Nc1ccc2ccc(N)cc2c1          %   92.1
35  CO/N=C/C=C\C(=O)N/C=C/C[C@H]1/C=C/[C@H](O)/C=C\C=C\c2cccc(O)c2C(=O)O1          %   32.1

Provenance of the data: PubChem BioAssay (NCI)
